# MEASURED TARGET: human TRPM8 (Homo sapiens, UniProt Q7Z2W7)
# Construct: expressed in transfected cells; host or cells: Chinese hamster ovary (CHO) cells, T-REx tetracycline-inducible system, co-transfected with aequorin
# Sequence (Q7Z2W7 whole entry): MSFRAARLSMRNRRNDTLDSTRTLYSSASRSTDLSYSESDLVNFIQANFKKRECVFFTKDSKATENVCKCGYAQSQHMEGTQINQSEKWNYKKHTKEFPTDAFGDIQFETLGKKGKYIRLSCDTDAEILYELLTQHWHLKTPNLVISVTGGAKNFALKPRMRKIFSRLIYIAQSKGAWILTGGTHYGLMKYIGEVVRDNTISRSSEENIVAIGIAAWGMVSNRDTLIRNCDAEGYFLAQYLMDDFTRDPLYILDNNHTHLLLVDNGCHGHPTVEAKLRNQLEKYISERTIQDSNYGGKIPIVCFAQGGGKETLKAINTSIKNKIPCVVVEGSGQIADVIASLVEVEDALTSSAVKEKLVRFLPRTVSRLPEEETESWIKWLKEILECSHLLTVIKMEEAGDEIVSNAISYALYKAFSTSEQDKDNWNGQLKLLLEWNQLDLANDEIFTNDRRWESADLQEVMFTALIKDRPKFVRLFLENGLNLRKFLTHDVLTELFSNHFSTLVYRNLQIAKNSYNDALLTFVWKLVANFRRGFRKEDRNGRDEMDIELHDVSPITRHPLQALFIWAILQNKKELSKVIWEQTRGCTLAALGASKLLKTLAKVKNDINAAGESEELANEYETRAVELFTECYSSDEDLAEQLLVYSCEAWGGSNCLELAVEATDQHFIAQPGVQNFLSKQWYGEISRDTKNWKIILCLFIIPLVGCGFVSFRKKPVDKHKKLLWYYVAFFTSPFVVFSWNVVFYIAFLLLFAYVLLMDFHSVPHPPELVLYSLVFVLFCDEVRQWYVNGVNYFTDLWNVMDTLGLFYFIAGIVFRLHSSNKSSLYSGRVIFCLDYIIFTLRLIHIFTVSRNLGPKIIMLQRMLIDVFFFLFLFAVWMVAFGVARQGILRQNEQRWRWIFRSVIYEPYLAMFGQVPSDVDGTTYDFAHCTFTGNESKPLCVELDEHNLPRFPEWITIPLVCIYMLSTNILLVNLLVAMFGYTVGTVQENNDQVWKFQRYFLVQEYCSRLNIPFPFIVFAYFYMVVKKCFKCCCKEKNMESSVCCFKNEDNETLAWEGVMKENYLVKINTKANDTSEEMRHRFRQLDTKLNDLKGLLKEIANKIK
# PROTOCOL TEXT: Luminescence readout assay for measuring intracellular calcium, icilin activation
# Format: cell-based
# REPORTED CONDITIONS: CHO cells expressing human TRPM8, aequorin luminescence, 1 μM icilin activation; read-out: hTRPM8 IC50
pIC50: −log10 of the molar value.
MEASUREMENT TYPE: pIC50

| COMPOUND | MEASURED TARGET | MEASUREMENT TYPE | RESULT |
| --- | --- | --- | --- |
| O=C(Cc1ccccc1OC(F)(F)F)N[C@@H](c1ccc(C(F)(F)F)cc1)c1ncccc1C(F)(F)F [Example 164] | human TRPM8 (Homo sapiens, UniProt Q7Z2W7) | pIC50 | 6.53 |
| Cc1c[nH]c(C(=O)N[C@@H](c2ccc(OC(F)(F)F)c(F)c2)c2ncccc2F)n1 [Example 388, 2,2,2-trifluoroacetate] | human TRPM8 (Homo sapiens, UniProt Q7Z2W7) | pIC50 | 5.53 |
| O=C(N[C@@H](c1ccc(OC(F)(F)F)c(F)c1)c1ncccc1F)c1ccc[nH]c1=O [Example 416] | human TRPM8 (Homo sapiens, UniProt Q7Z2W7) | pIC50 | 7.27 |
| O=C(N[C@@H](c1ccc(C(F)(F)F)cc1)c1ncccc1C(F)(F)F)c1ccc(Cl)nc1 [Example 135] | human TRPM8 (Homo sapiens, UniProt Q7Z2W7) | pIC50 | 7.71 |
| O=C(N[C@@H](c1ccc(C(F)(F)F)cc1)c1ncccc1F)c1cc2n(n1)CCCO2 [Example 320] | human TRPM8 (Homo sapiens, UniProt Q7Z2W7) | pIC50 | 6.88 |
| COc1ccc(C(=O)N[C@@H](c2ccc(C(F)(F)F)cc2)c2ncccc2F)cc1 [Example 172] | human TRPM8 (Homo sapiens, UniProt Q7Z2W7) | pIC50 | 7.74 |
| O=C(N[C@@H](c1ccc(OC(F)(F)F)cc1)c1ccccn1)c1ccc2oc(=O)[nH]c2c1 [Example 362] | human TRPM8 (Homo sapiens, UniProt Q7Z2W7) | pIC50 | 8.38 |
| COc1ccc(C(=O)N[C@@H](c2ccc(C(F)(F)F)cc2)c2ncccc2C(F)(F)F)cc1 [Example 171] | human TRPM8 (Homo sapiens, UniProt Q7Z2W7) | pIC50 | 7.76 |

A = O=C(N[C@@H](c1ccc(C(F)(F)F)cc1)c1ncccc1C(F)(F)F)c1cccc(C(F)(F)F)c1 [Example 211]
B = CN1C(=O)c2ccc(C(=O)N[C@@H](c3ccc(C(F)(F)F)cc3)c3ncccc3C(F)(F)F)cc2C1=O [Example 270]
C = CC(C)(C)Cc1cccnc1[C@@H](NC(=O)c1ccc2ncccc2c1)c1ccc(C(F)(F)F)cc1 [Example 236]
Ascending by pIC50, please. Field: ranking. Enter the labels in the order requested.
C, A, B

A = Cc1ccc(C(=O)N[C@@H](c2ccc(C(F)(F)F)cc2)c2ncccc2F)cn1 [Example 52]
B = Cc1ncsc1CCC(=O)N[C@@H](c1ccc(C(F)(F)F)cc1)c1ncccc1C(F)(F)F [Example 145]
C = CCn1cc(C(=O)N[C@@H](c2ccc(OC(F)(F)F)cc2)c2ncccc2F)ccc1=O [Example 255]
D = O=C(N[C@@H](c1ccc(OC(F)(F)F)c(F)c1)c1ccccn1)c1ccc2[nH]cnc2c1 [Example 393]
Ascending by pIC50, please. Field: ranking. Enter the labels in the order requested.
B, A, C, D
(B: 7.07, A: 7.40, C: 7.75, D: 8.21)

This collection of values is drawn from patent US8710043B2.
